# System: Escherichia coli TOP10
# method_description: shrunken log2 fold change of peptide-encoding DNA abundance (4.5 h post-induction vs induction); higher = less antimicrobial activity (less host growth inhibition)
# setup_conditions: time post-induction: 4.5 h; library: site-saturation at positions 5, 18, 19, 20
readout_name: shrunken log2 fold change
Answer field: number only, no words.

{"query_sequence": "RRIRRRPPRLPRPRPRPVFNPRP", "readout_name": "shrunken log2 fold change", "val": 0.056}
{"query_sequence": "RRIRPRPPRLPRPRPRPAWYPRP", "readout_name": "shrunken log2 fold change", "val": 0.0306}
{"query_sequence": "RRIRARPPRLPRPRPRPCHNPRP", "readout_name": "shrunken log2 fold change", "val": -0.161}
{"query_sequence": "RRIRFRPPRLPRPRPRPGKDPRP", "readout_name": "shrunken log2 fold change", "val": -0.105}
{"query_sequence": "RRIRSRPPRLPRPRPRPHTPPRP", "readout_name": "shrunken log2 fold change", "val": -0.318}

API: value(readout= shrunken log2 fold change, system= Escherichia coli TOP10, query= "RRIRKRPPRLPRPRPRPNAQPRP" ) 0.842

What shrunken log2 fold change appears in the records for this sequence with Escherichia coli TOP10? "RRIRWRPPRLPRPRPRPDMDPRP" 0.0441

Enter reported shrunken log2 fold change observed with Escherichia coli TOP10 for "RRIRQRPPRLPRPRPRPDLYPRP" -0.105

Look up shrunken log2 fold change with Escherichia coli TOP10 for this sequence: "RRIRLRPPRLPRPRPRPWFCPRP" -0.195

What reported shrunken log2 fold change corresponds to "RRIRWRPPRLPRPRPRPQQPPRP" on Escherichia coli TOP10? 0.383

---

# Tested on: Escherichia coli TOP10
# method_description: shrunken log2 fold change of peptide-encoding DNA abundance (4.5 h post-induction vs induction); higher = less antimicrobial activity (less host growth inhibition)
# setup_conditions: time post-induction: 4.5 h; library: site-saturation at positions 5, 18, 19, 20
readout_name: shrunken log2 fold change
# answer = number (no unit)

{"query_sequence": "RRIRYRPPRLPRPRPRPAPYPRP", "readout_name": "shrunken log2 fold change", "val": -0.557}
{"query_sequence": "RRIRQRPPRLPRPRPRPCDRPRP", "readout_name": "shrunken log2 fold change", "val": -0.0449}
{"query_sequence": "RRIRCRPPRLPRPRPRPFHLPRP", "readout_name": "shrunken log2 fold change", "val": -1.11}
{"query_sequence": "RRIRGRPPRLPRPRPRPANIPRP", "readout_name": "shrunken log2 fold change", "val": -0.0276}
{"query_sequence": "RRIRNRPPRLPRPRPRPEQEPRP", "readout_name": "shrunken log2 fold change", "val": 0.0175}

Next:
Entry under review: "RRIRLRPPRLPRPRPRPMKVPRP" . Reported shrunken log2 fold change? -0.00674

---

# Tested on: Escherichia coli TOP10
# method_description: shrunken log2 fold change of peptide-encoding DNA abundance (4.5 h post-induction vs induction); higher = less antimicrobial activity (less host growth inhibition)
# setup_conditions: time post-induction: 4.5 h; library: site-saturation at positions 5, 18, 19, 20
readout_name: shrunken log2 fold change
Output spec: single numeric token, no unit.

Some entries whose results are on file:
{"query_sequence": "RRIRSRPPRLPRPRPRPHCYPRP", "shrunken log2 fold change": -0.302}
{"query_sequence": "RRIRARPPRLPRPRPRPVVGPRP", "shrunken log2 fold change": 0.5}
{"query_sequence": "RRIRERPPRLPRPRPRPMSNPRP", "shrunken log2 fold change": -0.16}

Attention now turns to another entry.
Could you share which shrunken log2 fold change value was measured for "RRIRSRPPRLPRPRPRPQIMPRP" ? 1.11

---

# Tested on: Escherichia coli TOP10
# method_description: shrunken log2 fold change of peptide-encoding DNA abundance (4.5 h post-induction vs induction); higher = less antimicrobial activity (less host growth inhibition)
# setup_conditions: time post-induction: 4.5 h; library: site-saturation at positions 5, 18, 19, 20
readout_name: shrunken log2 fold change
// return a plain number; no unit text

Record request: shrunken log2 fold change value, item "RRIRLRPPRLPRPRPRPHKTPRP" 0.0373

---

# Tested on: Escherichia coli TOP10
# method_description: shrunken log2 fold change of peptide-encoding DNA abundance (4.5 h post-induction vs induction); higher = less antimicrobial activity (less host growth inhibition)
# setup_conditions: time post-induction: 4.5 h; library: site-saturation at positions 5, 18, 19, 20
readout_name: shrunken log2 fold change
Give only the figure.

Solved cases below.
{"query_sequence": "RRIRIRPPRLPRPRPRPYWSPRP", "shrunken log2 fold change": 0.0464}
{"query_sequence": "RRIRFRPPRLPRPRPRPCCIPRP", "shrunken log2 fold change": -0.313}
{"query_sequence": "RRIRARPPRLPRPRPRPYQRPRP", "shrunken log2 fold change": -0.229}

Please report the recorded shrunken log2 fold change for "RRIRTRPPRLPRPRPRPLYTPRP" . -0.322

Tell me the measured shrunken log2 fold change of "RRIRPRPPRLPRPRPRPESGPRP" , please. 0.415

So what's the measured shrunken log2 fold change for this one? "RRIRSRPPRLPRPRPRPRWAPRP" 0.158

---

# System: Escherichia coli TOP10
# method_description: shrunken log2 fold change of peptide-encoding DNA abundance (4.5 h post-induction vs induction); higher = less antimicrobial activity (less host growth inhibition)
# setup_conditions: time post-induction: 4.5 h; library: site-saturation at positions 5, 18, 19, 20
In this section, each of the sequences is paired with its reported shrunken log2 fold change.
Give your answer as a number; write no unit.

Past entries and their recorded results:
{"query_sequence": "RRIRCRPPRLPRPRPRPLEEPRP", "shrunken log2 fold change": 0.408}
{"query_sequence": "RRIRWRPPRLPRPRPRPPRAPRP", "shrunken log2 fold change": 0.782}
{"query_sequence": "RRIRARPPRLPRPRPRPVPKPRP", "shrunken log2 fold change": 0.791}
{"query_sequence": "RRIRARPPRLPRPRPRPCEQPRP", "shrunken log2 fold change": 0.233}
{"query_sequence": "RRIRQRPPRLPRPRPRPYLEPRP", "shrunken log2 fold change": -0.332}

Which shrunken log2 fold change is reported for this sequence? "RRIRMRPPRLPRPRPRPDVRPRP" 0.111

What does the record list as shrunken log2 fold change for "RRIRSRPPRLPRPRPRPDLMPRP" ? -0.0144

Requested field: shrunken log2 fold change. Item: "RRIRHRPPRLPRPRPRPKWMPRP" -0.123

---

# System: Escherichia coli TOP10
# method_description: shrunken log2 fold change of peptide-encoding DNA abundance (4.5 h post-induction vs induction); higher = less antimicrobial activity (less host growth inhibition)
# setup_conditions: time post-induction: 4.5 h; library: site-saturation at positions 5, 18, 19, 20
readout_name: shrunken log2 fold change
// keep it numeric: no unit symbol after the value

# get_value(readout='shrunken log2 fold change', item= "RRIRSRPPRLPRPRPRPGRHPRP" ) 0.0088

Endpoint output: shrunken log2 fold change of "RRIRNRPPRLPRPRPRPYFPPRP" . Value? -0.143

Given "RRIRARPPRLPRPRPRPDRRPRP" , state its recorded shrunken log2 fold change. 0.086

Return reported shrunken log2 fold change; argument: "RRIRNRPPRLPRPRPRPFTFPRP" -0.628

---

# Test system: Escherichia coli TOP10
# method_description: shrunken log2 fold change of peptide-encoding DNA abundance (4.5 h post-induction vs induction); higher = less antimicrobial activity (less host growth inhibition)
# setup_conditions: time post-induction: 4.5 h; library: site-saturation at positions 5, 18, 19, 20
Mark Not met for shrunken log2 fold change values under -0.07, and Met for everything at or above.

{"query_sequence": "RRIRWRPPRLPRPRPRPGYVPRP", "group": "Not met"}

Answer whether shrunken log2 fold change of "RRIRIRPPRLPRPRPRPPNYPRP" is greater than or equal to -0.07. Not met

Reported shrunken log2 fold change reaches at least -0.07 for "RRIRERPPRLPRPRPRPVKEPRP" ? Met

Decide: shrunken log2 fold change of "RRIRRRPPRLPRPRPRPIDHPRP" >= -0.07? Not met

In plain terms: is recorded shrunken log2 fold change at least -0.07 for "RRIRQRPPRLPRPRPRPCLAPRP" ? Met

---

# System: Escherichia coli TOP10;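 note: peptides expressed intracellularly from a pBAD plasmid library in pooled LB shake-flask culture, induced with 0.3% L-arabinose, DNA abundance read by NGS, three biological replicates, DESeq2 with apeglm shrinkage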
# method_description: shrunken log2 fold change of peptide-encoding DNA abundance (4.5 h post-induction vs induction); higher = less antimicrobial activity (less host growth inhibition)
# setup_conditions: time post-induction: 4.5 h; library: site-saturation at positions 5, 18, 19, 20
readout_name: shrunken log2 fold change
Lab note: write the figure by itself, no unit.

{"query_sequence": "RRIRGRPPRLPRPRPRPLVRPRP", "tested_on": "Escherichia coli TOP10", "shrunken log2 fold change": 0.577}
{"query_sequence": "RRIRTRPPRLPRPRPRPATVPRP", "tested_on": "Escherichia coli TOP10", "shrunken log2 fold change": 0.0426}
{"query_sequence": "RRIRRRPPRLPRPRPRPHLCPRP", "tested_on": "Escherichia coli TOP10", "shrunken log2 fold change": 0.189}
{"query_sequence": "RRIRERPPRLPRPRPRPNSLPRP", "tested_on": "Escherichia coli TOP10", "shrunken log2 fold change": 0.0427}
{"query_sequence": "RRIRLRPPRLPRPRPRPANQPRP", "tested_on": "Escherichia coli TOP10", "shrunken log2 fold change": 0.137}
{"query_sequence": "RRIRYRPPRLPRPRPRPKHCPRP", "tested_on": "Escherichia coli TOP10", "shrunken log2 fold change": -0.611}
{"query_sequence": "RRIRYRPPRLPRPRPRPPWEPRP", "tested_on": "Escherichia coli TOP10", "shrunken log2 fold change": -0.381}
{"query_sequence": "RRIRGRPPRLPRPRPRPAQRPRP", "tested_on": "Escherichia coli TOP10", "shrunken log2 fold change": 0.858}

Here is another sequence to look at.
Sample "RRIRWRPPRLPRPRPRPPRCPRP" — what was its shrunken log2 fold change? 0.483
